- TEST_SYSTEM: human A2B (Homo sapiens, UniProt P29275)
- EXPERIMENT_NOTES: cAMP HTRF assay for Gs coupled receptor, agonist test
- RECORDED_CONDITIONS: agonist activity; HEK293 cells expressing recombinant human A2B; read-out: A2BAR EC50
READOUT: EC50 (nM)

P. N#Cc1cnc(SCc2cccnc2)c(C#N)c1-c1ccc(OCCO)cc1
Q. N#Cc1c(N)nc(SCc2cnccn2)c(C#N)c1-c1ccc(OCCOC(F)F)cc1
R. N#Cc1c(SCc2cccnc2)nc(N2CCCC2)c(C#N)c1-c1ccc(OCCO)cc1
Q: Put the entries in order of EC50, starting with the largest number. Return value: ordered labels per request.
Ans: Q, R, P

* * *

- TEST_SYSTEM: human A2B (Homo sapiens)
- Sequence (P29275 1-332): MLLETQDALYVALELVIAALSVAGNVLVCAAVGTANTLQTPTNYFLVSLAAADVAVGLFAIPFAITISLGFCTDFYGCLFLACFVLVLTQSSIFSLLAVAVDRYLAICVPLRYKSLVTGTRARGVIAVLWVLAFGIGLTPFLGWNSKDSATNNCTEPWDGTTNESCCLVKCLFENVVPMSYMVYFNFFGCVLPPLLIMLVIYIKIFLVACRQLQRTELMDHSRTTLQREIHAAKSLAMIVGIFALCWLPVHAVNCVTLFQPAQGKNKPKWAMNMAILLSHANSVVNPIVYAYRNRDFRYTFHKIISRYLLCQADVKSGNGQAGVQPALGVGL
- EXPERIMENT_NOTES: cAMP HTRF assay for Gs coupled receptor, agonist test
- RECORDED_CONDITIONS: agonist activity; HEK293 cells expressing recombinant human A2B; read-out: A2BAR EC50
READOUT: EC50 (µM)

COCCSc1nc(N)c(C#N)c(-c2ccc(OCCO)cc2)c1C#N :: 0.028
N#Cc1c(SCc2cccnc2)nc(N2CC(F)C2)c(C#N)c1-c1ccc(OC(F)(F)CO)cc1 :: 0.435
N#Cc1c(N)nc(SCCC2CCO2)c(C#N)c1-c1ccc(OCCO)cc1 (centres unmarked) :: 3.76
N#Cc1c(N)nc(SCC2OCCCO2)c(C#N)c1-c1ccc(OC2COC2)cc1 :: 9.89
N#Cc1c(N)nc(SCc2cccnn2)c(C#N)c1-c1ccc(OCCOC(F)F)cc1 :: 5.36

A. N#Cc1c(SCc2cccnc2)nc(C2CC2)c(C#N)c1-c1ccc(OCCO)cc1
B. N#Cc1c(N)nc(SC[C@@H]2CCOC2)c(C#N)c1-c1ccc(OC2COC2)cc1
C. N#Cc1c(N)nc(SCc2ccnc3[nH]ccc23)c(C#N)c1-c1ccc(OCCO)cc1
D. N#Cc1c(N)nc(SCc2cccnc2)c(C#N)c1-c1ccc(OC2COC2)cc1
Q: Could you please sort these 4 entries by EC50 from high to low? Return value: ordered labels per request.
Ans: B, C, A, D
(B: 7.55 µM, C: 0.0817 µM, A: 0.0082 µM, D: 0.0002 µM)

* * *

- TEST_SYSTEM: human Adenosine A1 receptor (Homo sapiens)
- Sequence (P30542 1-326): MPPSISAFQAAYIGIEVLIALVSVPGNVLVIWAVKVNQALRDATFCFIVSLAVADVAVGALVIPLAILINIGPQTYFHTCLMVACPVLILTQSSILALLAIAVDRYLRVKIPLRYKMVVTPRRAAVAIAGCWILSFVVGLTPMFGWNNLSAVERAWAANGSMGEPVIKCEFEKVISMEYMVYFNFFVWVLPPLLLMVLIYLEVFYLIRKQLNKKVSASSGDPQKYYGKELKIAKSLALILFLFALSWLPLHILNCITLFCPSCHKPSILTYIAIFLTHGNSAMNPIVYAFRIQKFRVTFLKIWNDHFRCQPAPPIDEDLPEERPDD
- EXPERIMENT_NOTES: GTPγS scintillation proximity assay, agonist testing
- RECORDED_CONDITIONS: agonist activity; membrane extracts of CHO-K1 cells expressing recombinant human A1; read-out: A1AR EC50
READOUT: EC50 (nM)

Example results:
COCCOc1ccc(-c2c(C#N)c(SCc3cccnc3)nc(C3CC3)c2C#N)cc1 :: 110
N#Cc1c(N)nc(SCc2cccnc2)c(C#N)c1-c1ccc(OC(F)(F)CO)cc1 :: 6.48

I. N#Cc1c(SCc2cncnc2)nc(N2CCC2)c(C#N)c1-c1ccc(OCCO)cc1
II. CC(O)COc1ccc(-c2c(C#N)c(SCc3cccnc3)nc(N3CCC3)c2C#N)cc1 (centres unmarked)
Q: Of I and II , which one carries the higher reported EC50? The response must carry the label of the picked entry.
Ans: I

* * *

- TEST_SYSTEM: human A2B (Homo sapiens)
- EXPERIMENT_NOTES: cAMP HTRF assay for Gs coupled receptor, agonist test
- RECORDED_CONDITIONS: agonist activity; HEK293 cells expressing recombinant human A2B; read-out: A2BAR EC50
READOUT: EC50 (µM)

N#Cc1c(N)nc(SCc2ccccc2)c(C#N)c1-c1ccc(OCCO)cc1 [Compound 150] :: 0.0042

I. CC(C)(O)COc1ccc(-c2c(C#N)c(SCc3cccnc3)nc(N3CCCC3)c2C#N)cc1 [Compound 50]
II. N#Cc1c(N)nc(SCc2nccc3[nH]ccc23)c(C#N)c1-c1ccc(OCCO)cc1 [Compound 229]
Q: Of I and II , which one carries the higher reported EC50? The response must carry the label of the picked entry.
Ans: I
(I: 0.0942 µM, II: 0.011 µM)

a. N#Cc1c(N)nc(SCc2cccnc2)c(C#N)c1-c1ccc(OCCO)cc1 [Compound 183]
b. CC(O)COc1ccc(-c2c(C#N)c(SCc3cccnc3)nc(N3CCC3)c2C#N)cc1 (centres unmarked) [Compound 53]
Q: Of a and b , which one carries the higher reported EC50? The response must carry the label of the picked entry.
Ans: b
(b: 0.0007 µM, a: 0.0001 µM)

* * *

- TEST_SYSTEM: human Adenosine A1 receptor (Homo sapiens, UniProt P30542)
- Construct: host or cells: CHO-K1
- EXPERIMENT_NOTES: GTPγS scintillation proximity assay, agonist testing
- Format: biochemical
- RECORDED_CONDITIONS: agonist activity; membrane extracts of CHO-K1 cells expressing recombinant human A1; read-out: A1AR EC50
READOUT: EC50 (µM)

Example results:
N#Cc1c(N)nc(SCc2ccnc3[nH]ccc23)c(C#N)c1-c1ccc(OCCO)cc1 :: 0.0292
Cc1ccc(CSc2nc(N3CCC3)c(C#N)c(-c3ccc(OCCO)cc3)c2C#N)cn1 :: 0.201
N#Cc1c(N)nc(SCC2(F)COC2)c(C#N)c1-c1ccc(OC2COC2)cc1 :: 0.326
N#Cc1c(N)nc(SC[C@@H]2CCOC2)c(C#N)c1-c1ccc(OC2COC2)cc1 :: 1.46
COc1nc(SCc2cccnc2)c(C#N)c(-c2ccc(OCCO)cc2)c1C#N :: 0.0615
N#Cc1c(N)nc(SCC2CCOC2)c(C#N)c1-c1ccc(OCCO)cc1 (centres unmarked) :: 0.0524
COCCOc1ccc(-c2c(C#N)c(N)nc(SCC3COC3)c2C#N)cc1 :: 0.072
N#Cc1c(N)nc(SCC2OCCO2)c(C#N)c1-c1ccc(OC2COC2)cc1 :: 0.167

1. COCCOc1ccc(-c2c(C#N)c(SCc3cnccn3)nc(N3CCC3)c2C#N)cc1
2. COCCOc1ccc(-c2c(C#N)c(SCC3COC3)nc(N3CC(F)(F)C3)c2C#N)cc1
Q: Record comparison, field EC50: mark the lower of 1 and 2 . The response must carry the label of the picked entry.
Ans: 2
(2: 0.615 µM, 1: 3.52 µM)

* * *

- TEST_SYSTEM: UniProtKB P30542
- EXPERIMENT_NOTES: GTPγS scintillation proximity assay, agonist testing
- RECORDED_CONDITIONS: agonist activity; membrane extracts of CHO-K1 cells expressing recombinant human A1; read-out: A1AR EC50
- Protocol: SPA ^35S-GTPγS experiments were conducted with Epics Therapeutics membrane preparations. cAMP HTRF assays were conducted with recombinant cell lines. […] Protocol for agonist testing: membranes are mixed with GDP (volume:volume). […] Then the plates are centrifuged for 10 min at 2000 rpm, incubated at room temperature and counted for 30 sec/well with a PerkinElmer TopCount™ reader. • Conditions for the GTPγS scintillation proximity assay are shown in Table 14.
pEC50: −log10 of the molar value.
READOUT: pEC50

Example results:
CC(C)(O)COc1ccc(-c2c(C#N)c(N)nc(SCC3COC3)c2C#N)cc1 :: 7.05
N#Cc1c(SCc2cccnc2)nc(N2CC(F)(F)C2)c(C#N)c1-c1ccc(OC2COC2)cc1 :: 7.66

A. Cc1ccc(CSc2nc(N3CCCC3)c(C#N)c(-c3ccc(OCCO)cc3)c2C#N)cn1
B. COCCOc1ccc(-c2c(C#N)c(N)nc(SCc3cccc(OC)c3)c2C#N)cc1
C. CCOCCSc1nc(N)c(C#N)c(-c2ccc(OCCOC)cc2)c1C#N
D. N#Cc1c(N)nc(SCc2cccnc2)c(C#N)c1-c1ccc(OCCOC(F)F)cc1
E. COCCOc1ccc(-c2c(C#N)c(SCCO)nc(N3CCC3)c2C#N)cc1
Q: Sort ascending by pEC50. Return value: ordered labels per request.
Ans: E, A, C, B, D
